Data origin: the supplement of paper PMC9112550

test system: Escherichia coli TOP10; assay: shrunken log2 fold change of peptide-encoding DNA abundance (4.5 h post-induction vs induction); higher = less antimicrobial activity (less host growth inhibition); conditions: time post-induction: 4.5 h; library: site-saturation at positions 5, 18, 19, 20
Records here are stratified by shrunken log2 fold change; strata: bin 1 (below -0.1), bin 2 (-0.1 to below -0.008), bin 3 (-0.008 or more)

# count of solved cases: 3
INSERT INTO assay_data (sequence_code, measurement_target, label_value) VALUES
  ('RRIRVRPPRLPRPRPRPQHHPRP', 'Escherichia coli TOP10', 'bin 1'),
  ('RRIRYRPPRLPRPRPRPVVKPRP', 'Escherichia coli TOP10', 'bin 2'),
  ('RRIRRRPPRLPRPRPRPDDSPRP', 'Escherichia coli TOP10', 'bin 2');

Classify this sequence: RRIRNRPPRLPRPRPRPGHQPRP
bin 2

Classify this sequence: RRIRHRPPRLPRPRPRPFLSPRP
bin 1

Classify this sequence: RRIRWRPPRLPRPRPRPQYHPRP
bin 1

----------
tested on: Escherichia coli TOP10; assay: shrunken log2 fold change of peptide-encoding DNA abundance (4.5 h post-induction vs induction); higher = less antimicrobial activity (less host growth inhibition); conditions: time post-induction: 4.5 h; library: site-saturation at positions 5, 18, 19, 20
Measurement Name: shrunken log2 fold change
The answer should be a number; do not append a unit.

Observe how each entry below is paired with its result.
INSERT INTO results (sequence_code, measurement_target, measurement_name, result_number) VALUES
  ('RRIRYRPPRLPRPRPRPNMNPRP', 'Escherichia coli TOP10', 'shrunken log2 fold change', -0.882),
  ('RRIRWRPPRLPRPRPRPMHQPRP', 'Escherichia coli TOP10', 'shrunken log2 fold change', 0.067),
  ('RRIRDRPPRLPRPRPRPVCLPRP', 'Escherichia coli TOP10', 'shrunken log2 fold change', 0.345),
  ('RRIRTRPPRLPRPRPRPSMKPRP', 'Escherichia coli TOP10', 'shrunken log2 fold change', 0.00896),
  ('RRIRTRPPRLPRPRPRPQDSPRP', 'Escherichia coli TOP10', 'shrunken log2 fold change', -0.153);

Input RRIRIRPPRLPRPRPRPIKQPRP . Output shrunken log2 fold change: 0.00391

Input RRIRYRPPRLPRPRPRPHTSPRP . Output shrunken log2 fold change: -1.04

Input RRIRMRPPRLPRPRPRPLGKPRP . Output shrunken log2 fold change: 0.0958

----------
test system: Escherichia coli TOP10; test: shrunken log2 fold change of peptide-encoding DNA abundance (4.5 h post-induction vs induction); higher = less antimicrobial activity (less host growth inhibition); conditions: time post-induction: 4.5 h; library: site-saturation at positions 5, 18, 19, 20
Give true when the value for shrunken log2 fold change is at least 0.04. Give false when it is less.

INSERT INTO assay_data (sequence_code, measurement_target, label_value) VALUES
  ('RRIRFRPPRLPRPRPRPANCPRP', 'Escherichia coli TOP10', 'false'),
  ('RRIRSRPPRLPRPRPRPIITPRP', 'Escherichia coli TOP10', 'false'),
  ('RRIRTRPPRLPRPRPRPMCEPRP', 'Escherichia coli TOP10', 'true');

Quick check: does RRIRARPPRLPRPRPRPINTPRP have shrunken log2 fold change greater than or equal to 0.04?
false

Quick check: does RRIRFRPPRLPRPRPRPPHRPRP have shrunken log2 fold change greater than or equal to 0.04?
true

Quick check: does RRIRIRPPRLPRPRPRPKIQPRP have shrunken log2 fold change greater than or equal to 0.04?
false

Quick check: does RRIRARPPRLPRPRPRPTLEPRP have shrunken log2 fold change greater than or equal to 0.04?
true

Quick check: does RRIRGRPPRLPRPRPRPKEYPRP have shrunken log2 fold change greater than or equal to 0.04?
false

Quick check: does RRIRERPPRLPRPRPRPVSGPRP have shrunken log2 fold change greater than or equal to 0.04?
true

Quick check: does RRIRDRPPRLPRPRPRPMKDPRP have shrunken log2 fold change greater than or equal to 0.04?
false

Quick check: does RRIRMRPPRLPRPRPRPYVFPRP have shrunken log2 fold change greater than or equal to 0.04?
false

Quick check: does RRIRRRPPRLPRPRPRPKVHPRP have shrunken log2 fold change greater than or equal to 0.04?
true

Quick check: does RRIRVRPPRLPRPRPRPSSQPRP have shrunken log2 fold change greater than or equal to 0.04?
false

Quick check: does RRIRIRPPRLPRPRPRPTDAPRP have shrunken log2 fold change greater than or equal to 0.04?
false

Quick check: does RRIRRRPPRLPRPRPRPIPYPRP have shrunken log2 fold change greater than or equal to 0.04?
false

----------
test system: Escherichia coli TOP10; assay: shrunken log2 fold change of peptide-encoding DNA abundance (4.5 h post-induction vs induction); higher = less antimicrobial activity (less host growth inhibition); settings: time post-induction: 4.5 h; library: site-saturation at positions 5, 18, 19, 20
Give 1 when the value for shrunken log2 fold change is at least 0.05. Give -1 when it is less.

# count of solved cases: 3
INSERT INTO assay_data (sequence_code, measurement_target, label_value) VALUES
  ('RRIRGRPPRLPRPRPRPGKAPRP', 'Escherichia coli TOP10', 1),
  ('RRIRIRPPRLPRPRPRPCYEPRP', 'Escherichia coli TOP10', -1),
  ('RRIRSRPPRLPRPRPRPTVMPRP', 'Escherichia coli TOP10', -1);

Quick check: does RRIRPRPPRLPRPRPRPWWWPRP have shrunken log2 fold change greater than or equal to 0.05?
-1

Quick check: does RRIRDRPPRLPRPRPRPHCCPRP have shrunken log2 fold change greater than or equal to 0.05?
-1

Quick check: does RRIRGRPPRLPRPRPRPTSKPRP have shrunken log2 fold change greater than or equal to 0.05?
1

Quick check: does RRIRHRPPRLPRPRPRPGCLPRP have shrunken log2 fold change greater than or equal to 0.05?
-1

Quick check: does RRIRMRPPRLPRPRPRPENWPRP have shrunken log2 fold change greater than or equal to 0.05?
1

Quick check: does RRIRSRPPRLPRPRPRPVGDPRP have shrunken log2 fold change greater than or equal to 0.05?
1

Quick check: does RRIRERPPRLPRPRPRPQCKPRP have shrunken log2 fold change greater than or equal to 0.05?
-1

Quick check: does RRIRFRPPRLPRPRPRPNEAPRP have shrunken log2 fold change greater than or equal to 0.05?
-1

Quick check: does RRIRMRPPRLPRPRPRPRTQPRP have shrunken log2 fold change greater than or equal to 0.05?
1

Quick check: does RRIRHRPPRLPRPRPRPVGEPRP have shrunken log2 fold change greater than or equal to 0.05?
1

Quick check: does RRIRIRPPRLPRPRPRPHSSPRP have shrunken log2 fold change greater than or equal to 0.05?
-1

Quick check: does RRIRPRPPRLPRPRPRPTNHPRP have shrunken log2 fold change greater than or equal to 0.05?
-1

----------
tested on: Escherichia coli TOP10; test: shrunken log2 fold change of peptide-encoding DNA abundance (4.5 h post-induction vs induction); higher = less antimicrobial activity (less host growth inhibition); details: time post-induction: 4.5 h; library: site-saturation at positions 5, 18, 19, 20
Give Satisfied when the value for shrunken log2 fold change is at least 0.4. Give Not satisfied when it is less.

# count of solved cases: 2
INSERT INTO measurements (sequence_code, label_value) VALUES
  ('RRIRWRPPRLPRPRPRPRRRPRP', 'Satisfied'),
  ('RRIRNRPPRLPRPRPRPGVWPRP', 'Satisfied');

Quick check: does RRIRFRPPRLPRPRPRPPVLPRP have shrunken log2 fold change greater than or equal to 0.4?
Not satisfied

Quick check: does RRIRHRPPRLPRPRPRPGGTPRP have shrunken log2 fold change greater than or equal to 0.4?
Not satisfied

Quick check: does RRIRTRPPRLPRPRPRPFRLPRP have shrunken log2 fold change greater than or equal to 0.4?
Not satisfied

Quick check: does RRIRERPPRLPRPRPRPRDYPRP have shrunken log2 fold change greater than or equal to 0.4?
Not satisfied

Quick check: does RRIRLRPPRLPRPRPRPCTHPRP have shrunken log2 fold change greater than or equal to 0.4?
Not satisfied

----------
system: Escherichia coli TOP10; assay: shrunken log2 fold change of peptide-encoding DNA abundance (4.5 h post-induction vs induction); higher = less antimicrobial activity (less host growth inhibition); settings: time post-induction: 4.5 h; library: site-saturation at positions 5, 18, 19, 20;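 further: peptides expressed intracellularly from a pBAD plasmid library in pooled LB shake-flask culture, induced with 0.3% L-arabinose, DNA abundance read by NGS, three biological replicates, DESeq2 with apeglm shrinkage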
Measurement Name: shrunken log2 fold change
The answer should be a number; do not append a unit.

Observe how each entry below is paired with its result.
INSERT INTO assay_data (sequence_code, measurement_target, measurement_name, result_number) VALUES
  ('RRIRWRPPRLPRPRPRPKWTPRP', 'Escherichia coli TOP10', 'shrunken log2 fold change', -0.119),
  ('RRIRIRPPRLPRPRPRPCMVPRP', 'Escherichia coli TOP10', 'shrunken log2 fold change', -1.06),
  ('RRIRNRPPRLPRPRPRPERLPRP', 'Escherichia coli TOP10', 'shrunken log2 fold change', 0.0695),
  ('RRIRSRPPRLPRPRPRPQNCPRP', 'Escherichia coli TOP10', 'shrunken log2 fold change', 0.0871),
  ('RRIRMRPPRLPRPRPRPKFYPRP', 'Escherichia coli TOP10', 'shrunken log2 fold change', 0.0127),
  ('RRIRVRPPRLPRPRPRPWRTPRP', 'Escherichia coli TOP10', 'shrunken log2 fold change', 0.0312),
  ('RRIRDRPPRLPRPRPRPMPSPRP', 'Escherichia coli TOP10', 'shrunken log2 fold change', 0.026),
  ('RRIRGRPPRLPRPRPRPIWAPRP', 'Escherichia coli TOP10', 'shrunken log2 fold change', 0.267);

shrunken log2 fold change on Escherichia coli TOP10 for RRIRDRPPRLPRPRPRPETPPRP is 0.904

shrunken log2 fold change on Escherichia coli TOP10 for RRIRARPPRLPRPRPRPETTPRP is 1.61
